Origin of the recorded values: patent US20240408169A1

target: CyclinB1/CDK1 (Homo sapiens); construct: purchased Eurofins, discovery 14-450; experiment: Fluorescence Polarization (FP) competitive binding assay, Cyclin B1/Cdk1; details: read-out: Cyclin B FP IC50; 10 nM Cyclin B1/Cdk1, 2 nM FAM probe; average of 2-3 independent experiments;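 further: fluorescence polarization read after equilibration at room temperature, with IC50 taken from serially diluted dose-response curves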
*1 amine or outer side, *2 acyl side, *3 side chain or, on linkers, in order; H or OH if unused. Where a SMILES comes first, the peptide text is derived from it. Bridges are numbered along the chain shown (N, C = ends). [ ]: non-standard residue; d: D form. The star is where a group is joined. X99 = CC(=O)N1CCC(Oc2ccc(Cl)cc2C[C@@H](C(=O)[*:2])N(C)[*:1])CC1; NMehhhLys(Me) = CN([C@@H](CCCCCCCN(C)[*:3])C(=O)[*:2])[*:1]; X215 = Cc1noc(C)c1-c1ccc(Cl)cc1C[C@@H](C(=O)[*:2])N(C)[*:1]; X22 = CN([C@@H](Cc1cc(Cl)ccc1-c1cnn(C)c1)C(=O)[*:2])[*:1]; cBuCO(3,3-F2-1-CF3) = O=C(C1(C(F)(F)F)CC(F)(F)C1)*; Pro(trans-4-F) = O=C(O)[C@@H]1C[C@@H](F)CN1; Pivaloyl(3,3,3-F3) = CC(C)(C(=O)*)C(F)(F)F; Gly(cPr) = N[C@H](C(=O)O)C1CC1
Can you tell me IC50 for the items I'm about to list?
# output: bare number, implied unit nM

Input: Reported IC50 for CyclinB1/CDK1 (Homo sapiens), given CC(=O)N1CCC(Oc2ccc(Cl)cc2C[C@H]2C(=O)N(C)CCCCCCC[C@H](N(C)C(=O)[C@@H](NC(=O)[C@@H]3C[C@@H](F)CN3C(=O)C3(C(F)(F)F)CC(F)(F)C3)C3CC3)C(=O)N[C@@H](CC(C)C)C(=O)N2C)CC1 [Example 243] ({cBuCO(3,3-F2-1-CF3)}-[Pro(trans-4-F)][Gly(cPr)][NMehhhLys(Me)]L[X99]; lactam 3-C) ?
Output: 20

Input: Reported IC50 for CyclinB1/CDK1 (Homo sapiens), given Cc1noc(C)c1-c1ccc(Cl)cc1C[C@H]1C(=O)N(C)CCCCCCC[C@H](N(C)C(=O)[C@@H](NC(=O)[C@@H]2C[C@@H](F)CN2C(=O)C2(C(F)(F)F)CC(F)(F)C2)C2CC2)C(=O)N[C@@H](CC(C)C)C(=O)N1C [Example 210] ({cBuCO(3,3-F2-1-CF3)}-[Pro(trans-4-F)][Gly(cPr)][NMehhhLys(Me)]L[X215]; lactam 3-C) ?
Output: 20

Input: Reported IC50 for CyclinB1/CDK1 (Homo sapiens), given CC(C)C[C@@H]1NC(=O)[C@@H](N(C)C(=O)[C@@H](NC(=O)[C@@H]2C[C@@H](F)CN2C(=O)C(C)(C)C(F)(F)F)C2CC2)CCCCCCCN(C)C(=O)[C@H](Cc2cc(Cl)ccc2-c2cnn(C)c2)N(C)C1=O [Example 204] ({Pivaloyl(3,3,3-F3)}-[Pro(trans-4-F)][Gly(cPr)][NMehhhLys(Me)]L[X22]; lactam 3-C) ?
Output: 20

----------
molecular target: CyclinA2/CDK2 (Homo sapiens, UniProt P20248); construct: purchased CRELUX Protein Services; test: Fluorescence Polarization (FP) competitive binding assay, Cyclin A2/Cdk2; settings: 8 nM Cyclin A2/Cdk2, 2 nM FAM probe; average of 2-3 independent experiments; read-out: Cyclin A FP IC50
*1 amine or outer side, *2 acyl side, *3 side chain or, on linkers, in order; H or OH if unused. Where a SMILES comes first, the peptide text is derived from it. Bridges are numbered along the chain shown (N, C = ends). [ ]: non-standard residue; d: D form. The star is where a group is joined. X198 = COC[C@H]1COCCN1c1ccc(-c2ccc(Cl)cc2C[C@@H](C(=O)[*:2])N(C)[*:1])cc1; X50 = CN([C@@H](Cc1cc(Cl)ccc1-c1ccc(N2CCN(C3COC3)CC2)cc1)C(=O)[*:2])[*:1]; NMehhhLys(Me) = CN([C@@H](CCCCCCCN(C)[*:3])C(=O)[*:2])[*:1]; cBuCO(3,3-F2-1-CF3) = O=C(C1(C(F)(F)F)CC(F)(F)C1)*; Pro(trans-4-F) = O=C(O)[C@@H]1C[C@@H](F)CN1; Gly(cPr) = N[C@H](C(=O)O)C1CC1
Can you tell me pIC50 for the items I'm about to list?
Reminder that pIC50 is minus the log10 of a molar concentration.

Input: Suppose we examine the compound CC(C)C[C@@H]1NC(=O)[C@@H](N(C)C(=O)[C@@H](NC(=O)[C@@H]2C[C@@H](F)CN2C(=O)C2(C(F)(F)F)CC(F)(F)C2)C2CC2)CCCCCCCN(C)C(=O)[C@H](Cc2cc(Cl)ccc2-c2ccc(N3CCN(C4COC4)CC3)cc2)N(C)C1=O [Example 346] ({cBuCO(3,3-F2-1-CF3)}-[Pro(trans-4-F)][Gly(cPr)][NMehhhLys(Me)]L[X50]; lactam 3-C) ; what pIC50 value has been reported?
Output: 7.70

Input: Suppose we examine the compound CC(C)C[C@@H]1NC(=O)[C@@H](N(C)C(=O)[C@@H](NC(=O)[C@@H]2C[C@@H](F)CN2C(=O)C2(C(F)(F)F)CC(F)(F)C2)C2CC2)CC=CCCCCN(C)C(=O)[C@H](Cc2cc(Cl)ccc2-c2cnn(C)c2)N(C)C1=O ; what pIC50 value has been reported?
Output: 7.52

Input: Suppose we examine the compound COC[C@H]1COCCN1c1ccc(-c2ccc(Cl)cc2C[C@H]2C(=O)N(C)CCCCCCC[C@H](N(C)C(=O)[C@@H](NC(=O)[C@@H]3C[C@@H](F)CN3C(=O)C3(C(F)(F)F)CC(F)(F)C3)C3CC3)C(=O)N[C@@H](CC(C)C)C(=O)N2C)cc1 [Example 373] ({cBuCO(3,3-F2-1-CF3)}-[Pro(trans-4-F)][Gly(cPr)][NMehhhLys(Me)]L[X198]; lactam 3-C) ; what pIC50 value has been reported?
Output: 7.70

----------
molecular target: CyclinA2/CDK2 (Homo sapiens, UniProt P20248); construct: purchased CRELUX Protein Services; test: Fluorescence Polarization (FP) competitive binding assay, Cyclin A2/Cdk2; conditions: 8 nM Cyclin A2/Cdk2, 2 nM FAM probe; average of 2-3 independent experiments; read-out: Cyclin A FP IC50;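 further: plates equilibrated two hours at room temperature before polarization reading, IC50 fitted from eight-concentration compound titration curves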
*1 amine or outer side, *2 acyl side, *3 side chain or, on linkers, in order; H or OH if unused. Where a SMILES comes first, the peptide text is derived from it. Bridges are numbered along the chain shown (N, C = ends). [ ]: non-standard residue; d: D form. The star is where a group is joined. NMePhe(2-(4-MorPh),5-Cl) = CN[C@@H](Cc1cc(Cl)ccc1-c1ccc(N2CCOCC2)cc1)C(=O)O; NMehhhLys(Me) = CN([C@@H](CCCCCCCN(C)[*:3])C(=O)[*:2])[*:1]; X64 = CN([C@@H](Cc1cc(Cl)ccc1OC1(C)CC1)C(=O)[*:2])[*:1]; NMe(hhhLys) = CN([C@@H](CCCCCCCN[*:3])C(=O)[*:2])[*:1]; Oxane2carbonyl(2R-CF3) = O=C([C@@]1(C(F)(F)F)CCCCO1)*; cBuCO(3,3-F2-1-CF3) = O=C(C1(C(F)(F)F)CC(F)(F)C1)*; Pro(trans-4-F) = O=C(O)[C@@H]1C[C@@H](F)CN1; Gly(cPr) = N[C@H](C(=O)O)C1CC1
Can you tell me IC50 for the items I'm about to list?
# output: bare number, implied unit nM

Input: Suppose we examine the compound CC(C)C[C@@H]1NC(=O)[C@@H](N(C)C(=O)[C@@H](NC(=O)[C@@H]2C[C@@H](F)CN2C(=O)C2(C(F)(F)F)CCC2)C2CC2)CC=CCCCCN(C)C(=O)[C@H](Cc2cc(F)cnc2OC2CC2)N(C)C1=O ; what IC50 value has been reported?
Output: 470

Input: Suppose we examine the compound CC(C)C[C@@H]1NC(=O)[C@@H](N(C)C(=O)[C@@H](NC(=O)[C@@H]2C[C@@H](F)CN2C(=O)[C@@]2(C(F)(F)F)CCCCO2)C2CC2)CCCCCCCN(C)C(=O)[C@H](Cc2cc(Cl)ccc2OC2(C)CC2)N(C)C1=O [Example 260] ({Oxane2carbonyl(2R-CF3)}-[Pro(trans-4-F)][Gly(cPr)][NMehhhLys(Me)]L[X64]; lactam 3-C) ; what IC50 value has been reported?
Output: 50

Input: Suppose we examine the compound CC(C)C[C@@H]1NC(=O)[C@@H](N(C)C(=O)[C@@H](NC(=O)[C@@H]2C[C@@H](F)CN2C(=O)C2(C(F)(F)F)CC(F)(F)C2)C2CC2)CCCCCCCNC(=O)[C@H](Cc2cc(Cl)ccc2-c2ccc(N3CCOCC3)cc2)N(C)C1=O [Example 333] ({cBuCO(3,3-F2-1-CF3)}-[Pro(trans-4-F)][Gly(cPr)][NMe(hhhLys)]L[NMePhe(2-(4-MorPh),5-Cl)]; lactam 3-C) ; what IC50 value has been reported?
Output: 20
